Dear all, this message contains IC50 results, target or system human full length PKCE enzyme (Homo sapiens, UniProt Q02156).

Query: Could you share which IC50 value was measured for CC(=O)c1ccc(N2CCNCC2)c(NC(=O)c2nccnc2N)c1 ?
Response: 1 to 10 µM

Query: Could you share which IC50 value was measured for Nc1ncc(-c2ccccc2F)nc1C(=O)Nc1cnccc1N1CCCC(N)C1 (stereo not drawn) ?
Response: < 1 µM

Query: Could you share which IC50 value was measured for Nc1nccnc1C(=O)Nc1[nH]c(=O)ncc1-c1ccccn1 ?
Response: 1 to 10 µM

Query: Could you share which IC50 value was measured for COc1nc(N)ncc1-c1ccc(N)c(C(=O)Nc2cnccc2N2CCC[C@H](N)C2)n1 ?
Response: > 25 µM

Query: Could you share which IC50 value was measured for Nc1ncc(-c2ccccc2)nc1C(=O)Nc1ccccc1N1CCNCC1 ?
Response: < 1 µM

Query: Could you share which IC50 value was measured for Nc1nccnc1C(=O)Nc1cnccc1Cl ?
Response: 10 to 25 µM

Every entry's value here was drawn from patent US20140249135A1.
